Tested on: HeLa
PROTOCOL_NOTES: Antiproliferative activity against human HeLa cells measured after 72 hrs by EZ-Cytox assay
Assay type: functional, cell-based
RESULT_TYPE: IC50 (µM)
State the answer as a number, implicitly in µM.

Some molecules with known IC50 results, for comparison:
# STRUCTURE, SYSTEM_TESTED, IC50 (µM)
records = [
    ("Oc1cccc(-c2cc(-c3ccc(Cl)cc3)c3c(n2)-c2c(O)cccc2C3)c1", "HeLa", 9.01),
    ("Oc1ccc(-c2cc(-c3cccc(Cl)c3)c3c(n2)-c2cc(O)ccc2C3)cc1", "HeLa", 8.06),
    ("Oc1ccc2c(c1)Cc1c(-c3ccccc3O)cc(-c3cccc(C(F)(F)F)c3)nc1-2", "HeLa", 3.1),
    ("Oc1ccc(-c2cc(-c3ccc(C(F)(F)F)cc3)nc3c2Cc2cc(O)ccc2-3)cc1", "HeLa", 4.8),
    ("Oc1ccccc1-c1cc(-c2cccc(F)c2)nc2c1Cc1cccc(O)c1-2", "HeLa", 7.9),
]

Query: Please tell me the measured IC50 for `Oc1cccc(-c2cc(-c3ccccc3)c3c(n2)-c2ccc(O)cc2C3)c1` ; system: HeLa.
Reply: 5.7

Query: Write down measured IC50 (HeLa) for this molecule. `Oc1ccccc1-c1cc(-c2ccccc2Cl)c2c(n1)-c1cccc(O)c1C2`
Reply: 4.59

###

This listing pairs molecules with measured inhibition.
SYSTEM_TESTED: DNA topoisomerase 2-alpha (Homo sapiens)
PROTOCOL_NOTES: Inhibition of recombinant human topoisomerase 2alpha-mediated relaxation of supercoiled pBR322 DNA at 20 uM measured after 30 mins by ethidium bromide staining based agarose gel electrophoresis relative to control
Give the quantity in %, number only.

Example results:
# STRUCTURE, inhibition [%]
data = [
    ("Oc1cccc(-c2cc(-c3ccccc3C(F)(F)F)nc3c2Cc2c(O)cccc2-3)c1", 2.1),
    ("Oc1ccc(-c2cc(-c3ccccc3Cl)c3c(n2)-c2ccc(O)cc2C3)cc1", 7),
    ("Oc1cccc(-c2cc(-c3cccc(F)c3)nc3c2Cc2cc(O)ccc2-3)c1", 0),
]

Query: For `Oc1ccc2c(c1)-c1nc(-c3ccccc3)cc(-c3ccccc3)c1C2` , write its inhibition.
Reply: 5.5

Query: Determine from records and report inhibition for `Oc1cccc(-c2cc(-c3cccc(Cl)c3)c3c(n2)-c2cc(O)ccc2C3)c1`
Reply: 3.5

###

Measured pIC50 by item
System: DU-145
PROTOCOL_NOTES: Antiproliferative activity against human DU145 cells measured after 72 hrs by EZ-Cytox assay
Type: functional, cell-based
TEST_CONTEXT: DU-145, 72 h
Notebook: values listed as pIC50 are -log10 of the concentration (mol/L).

# STRUCTURE, RESULT_TYPE, QUANTITATIVE_READOUT
records = [
    ("Oc1ccc(-c2cc(-c3ccc(F)cc3)nc3c2Cc2c(O)cccc2-3)cc1", "pIC50", 5.74),
    ("Oc1cccc(-c2cc(-c3ccccc3)nc3c2Cc2ccc(O)cc2-3)c1", "pIC50", 5.80),
    ("Oc1cccc(-c2cc(-c3cccc(Cl)c3)c3c(n2)-c2cccc(O)c2C3)c1", "pIC50", 4.67),
]

Query: # return recorded pIC50 for input `Oc1cccc(-c2cc(-c3ccc(Cl)cc3)nc3c2Cc2cccc(O)c2-3)c1`
Reply: 6.44

Query: Using known records, supply pIC50 for `Oc1cccc(-c2cc(-c3ccc(C(F)(F)F)cc3)nc3c2Cc2cccc(O)c2-3)c1`
Reply: 5.65

###

SYSTEM_TESTED: DNA topoisomerase 2-alpha (Homo sapiens) (UniProt P11388)
Sequence (P11388 whole entry): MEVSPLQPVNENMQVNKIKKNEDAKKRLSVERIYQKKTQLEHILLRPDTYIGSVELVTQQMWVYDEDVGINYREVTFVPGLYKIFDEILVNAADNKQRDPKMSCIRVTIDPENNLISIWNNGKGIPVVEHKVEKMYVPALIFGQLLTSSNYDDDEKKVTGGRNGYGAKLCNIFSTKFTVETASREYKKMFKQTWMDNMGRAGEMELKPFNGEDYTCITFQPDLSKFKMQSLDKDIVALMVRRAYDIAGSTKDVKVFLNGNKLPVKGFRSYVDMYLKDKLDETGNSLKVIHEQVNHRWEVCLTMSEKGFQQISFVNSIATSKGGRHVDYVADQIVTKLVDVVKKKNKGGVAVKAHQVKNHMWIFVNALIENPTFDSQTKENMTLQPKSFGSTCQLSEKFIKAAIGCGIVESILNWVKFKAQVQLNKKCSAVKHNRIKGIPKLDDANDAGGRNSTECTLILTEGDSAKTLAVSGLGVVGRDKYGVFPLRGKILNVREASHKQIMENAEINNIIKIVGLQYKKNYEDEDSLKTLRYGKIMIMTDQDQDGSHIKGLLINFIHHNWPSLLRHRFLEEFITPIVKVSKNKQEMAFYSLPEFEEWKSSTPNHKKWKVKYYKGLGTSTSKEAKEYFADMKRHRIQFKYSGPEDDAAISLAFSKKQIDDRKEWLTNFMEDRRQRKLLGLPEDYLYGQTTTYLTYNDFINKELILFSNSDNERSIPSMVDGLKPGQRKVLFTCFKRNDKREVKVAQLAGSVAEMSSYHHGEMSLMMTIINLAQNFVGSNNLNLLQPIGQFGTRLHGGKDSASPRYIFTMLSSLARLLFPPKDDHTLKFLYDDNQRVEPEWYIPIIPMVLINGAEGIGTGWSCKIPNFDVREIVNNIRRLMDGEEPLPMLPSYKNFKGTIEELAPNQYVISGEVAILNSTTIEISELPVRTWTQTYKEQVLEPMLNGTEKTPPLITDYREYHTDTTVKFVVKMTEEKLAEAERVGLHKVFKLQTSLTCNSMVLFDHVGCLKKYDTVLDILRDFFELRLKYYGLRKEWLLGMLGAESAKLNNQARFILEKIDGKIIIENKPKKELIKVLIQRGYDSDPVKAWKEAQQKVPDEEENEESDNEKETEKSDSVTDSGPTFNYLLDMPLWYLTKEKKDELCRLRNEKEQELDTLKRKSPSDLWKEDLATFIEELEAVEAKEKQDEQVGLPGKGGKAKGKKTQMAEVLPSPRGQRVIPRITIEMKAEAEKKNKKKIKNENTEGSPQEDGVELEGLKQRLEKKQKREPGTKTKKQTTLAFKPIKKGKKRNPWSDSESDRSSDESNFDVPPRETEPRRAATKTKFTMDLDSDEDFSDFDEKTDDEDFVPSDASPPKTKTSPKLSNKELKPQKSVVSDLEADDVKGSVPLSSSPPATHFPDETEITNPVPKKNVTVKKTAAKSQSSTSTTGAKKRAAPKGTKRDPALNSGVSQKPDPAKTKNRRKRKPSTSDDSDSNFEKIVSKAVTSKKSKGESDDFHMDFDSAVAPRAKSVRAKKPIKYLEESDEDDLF
PROTOCOL_NOTES: Inhibition of recombinant human topoisomerase 2alpha-mediated relaxation of supercoiled pBR322 DNA at 100 uM measured after 30 mins by ethidium bromide staining based agarose gel electrophoresis relative to control
RESULT_TYPE: inhibition (%)
Please reply with the bare figure in % and do not write the unit itself.

Query: Note inhibition for the molecule shown: `Oc1ccc(-c2cc(-c3ccccc3)c3c(n2)-c2cccc(O)c2C3)cc1`
Reply: 4.4

Query: Return value of inhibition for input `Oc1ccc2c(c1)Cc1c(-c3ccccc3)cc(-c3ccccc3O)nc1-2` , no commentary.
Reply: 19

Query: Indicate the recorded inhibition value for this molecule: `Oc1ccc(-c2cc(-c3ccccc3Cl)c3c(n2)-c2ccc(O)cc2C3)cc1`
Reply: 80

Query: Given `Oc1cccc(-c2cc(-c3ccccc3)c3c(n2)-c2cc(O)ccc2C3)c1` , respond with its inhibition.
Reply: 3.5

Query: Quick one: give measured inhibition for `Oc1ccc(-c2cc(-c3ccccc3)c3c(n2)-c2c(O)cccc2C3)cc1`
Reply: 3.7

###

SYSTEM_TESTED: DNA topoisomerase 2-alpha (Homo sapiens) (UniProt P11388)
PROTOCOL_NOTES: Inhibition of recombinant human topoisomerase 2alpha-mediated relaxation of supercoiled pBR322 DNA at 100 uM measured after 30 mins by ethidium bromide staining based agarose gel electrophoresis relative to control
As shown below, each of these molecules has a reported inhibition value.
Dear colleague, please return just the value in %, with no unit written.

Look over these answered cases.
# STRUCTURE, inhibition (%)
measured = [
    ("Oc1ccc2c(c1)Cc1c(-c3ccccc3O)cc(-c3ccc(Cl)cc3)nc1-2", 97.5),
    ("Oc1cccc(-c2cc(-c3ccccc3)c3c(n2)-c2cccc(O)c2C3)c1", 4.5),
]

Query: Look up inhibition of `Oc1cccc(-c2cc(-c3ccc(Cl)cc3)c3c(n2)-c2ccc(O)cc2C3)c1` and report it.
Reply: 74.3

Query: Answer with the recorded inhibition for the molecule listed here: `Oc1ccccc1-c1cc(-c2ccccc2C(F)(F)F)nc2c1Cc1c(O)cccc1-2`
Reply: 83.7

Query: Fill in inhibition for record `Oc1ccc2c(c1)-c1nc(-c3ccccc3O)cc(-c3ccccc3Cl)c1C2`
Reply: 74.1

Query: State, in one line, measured inhibition of `Oc1ccc2c(c1)Cc1c(-c3cccc(Cl)c3)cc(-c3ccccc3O)nc1-2`
Reply: 74.3

Query: Give inhibition for the following molecule: `Oc1cccc(-c2cc(-c3cccc(F)c3)nc3c2Cc2ccc(O)cc2-3)c1`
Reply: 44.2

Query: Check the records and state inhibition for `Oc1ccccc1-c1cc(-c2ccc(Cl)cc2)nc2c1Cc1cccc(O)c1-2`
Reply: 83.9

Query: Tell me inhibition reported for `Oc1ccc(-c2cc(-c3ccccc3Cl)nc3c2Cc2cc(O)ccc2-3)cc1`
Reply: 86.6

Query: Determine its reported inhibition: `Oc1cccc(-c2cc(-c3ccccc3)nc3c2Cc2cccc(O)c2-3)c1`
Reply: 6.3

Query: Annotate the molecule `Oc1ccc(-c2cc(-c3cccc(F)c3)nc3c2Cc2cccc(O)c2-3)cc1` with its measured inhibition.
Reply: 67

Query: Using known records, supply inhibition for `Oc1cccc(-c2cc(-c3ccccc3F)nc3c2Cc2ccc(O)cc2-3)c1`
Reply: 28.1

Query: Note inhibition for the molecule shown: `Oc1ccc(-c2cc(-c3ccccc3Cl)nc3c2Cc2c(O)cccc2-3)cc1`
Reply: 100

Query: Provide only the value of recorded inhibition for `Oc1ccc(-c2cc(-c3ccc(F)cc3)nc3c2Cc2cc(O)ccc2-3)cc1`
Reply: 17.1

Query: Determine from records and report inhibition for `Oc1ccc2c(c1)Cc1c(-c3ccccc3O)cc(-c3cccc(F)c3)nc1-2`
Reply: 28

Query: Query inhibition for `Oc1ccccc1-c1cc(-c2ccccc2Cl)nc2c1Cc1cccc(O)c1-2`
Reply: 80.9

Query: Let me know recorded inhibition for `Oc1cccc(-c2cc(-c3ccc(Cl)cc3)c3c(n2)-c2c(O)cccc2C3)c1` , thanks.
Reply: 95.7

Query: Recall and state the measured inhibition for `Oc1cccc(-c2cc(-c3cccc(C(F)(F)F)c3)nc3c2Cc2cccc(O)c2-3)c1` .
Reply: 71.6

Query: Name the recorded inhibition of the molecule listed here: `Oc1ccc2c(c1)-c1nc(-c3cccc(C(F)(F)F)c3)cc(-c3ccccc3O)c1C2`
Reply: 98.9

Query: Consider the molecule `Oc1ccc2c(c1)Cc1c(-c3ccccc3O)cc(-c3ccc(C(F)(F)F)cc3)nc1-2` . State its measured inhibition.
Reply: 99.9

Query: Identify inhibition associated with the molecule `Oc1ccc(-c2cc(-c3cccc(Cl)c3)c3c(n2)-c2cccc(O)c2C3)cc1`
Reply: 75.3

Query: Check the records and state inhibition for `Oc1cccc(-c2cc(-c3ccc(F)cc3)nc3c2Cc2ccc(O)cc2-3)c1`
Reply: 48.3

Query: Identify inhibition associated with the molecule `Oc1ccc(-c2cc(-c3cccc(Cl)c3)nc3c2Cc2c(O)cccc2-3)cc1`
Reply: 72.8

###

SYSTEM_TESTED: UniProtKB P11388
PROTOCOL_NOTES: Inhibition of recombinant human topoisomerase 2alpha-mediated relaxation of supercoiled pBR322 DNA at 100 uM measured after 30 mins by ethidium bromide staining based agarose gel electrophoresis relative to control
Decide using inhibition: a value greater than or equal to 80% is yes, a smaller one is no.

// below: answered molecules
# STRUCTURE, SYSTEM_TESTED, CAT
records = [
    ("Oc1ccccc1-c1cc(-c2cccc(C(F)(F)F)c2)nc2c1Cc1c(O)cccc1-2", "UniProtKB P11388", "yes"),
    ("Oc1ccc(-c2cc(-c3ccccc3)c3c(n2)-c2cc(O)ccc2C3)cc1", "UniProtKB P11388", "no"),
    ("Oc1ccccc1-c1cc(-c2ccc(Cl)cc2)c2c(n1)-c1c(O)cccc1C2", "UniProtKB P11388", "no"),
]

With those in mind, consider the next molecule.
Query: Form field: inhibition at least 80%? Entry: `Oc1cccc(-c2cc(-c3ccc(Cl)cc3)nc3c2Cc2cc(O)ccc2-3)c1`
Reply: yes
